# measurement-target: Full-length inactive AKT1 (Homo sapiens)
# Sequence (P31749 whole entry): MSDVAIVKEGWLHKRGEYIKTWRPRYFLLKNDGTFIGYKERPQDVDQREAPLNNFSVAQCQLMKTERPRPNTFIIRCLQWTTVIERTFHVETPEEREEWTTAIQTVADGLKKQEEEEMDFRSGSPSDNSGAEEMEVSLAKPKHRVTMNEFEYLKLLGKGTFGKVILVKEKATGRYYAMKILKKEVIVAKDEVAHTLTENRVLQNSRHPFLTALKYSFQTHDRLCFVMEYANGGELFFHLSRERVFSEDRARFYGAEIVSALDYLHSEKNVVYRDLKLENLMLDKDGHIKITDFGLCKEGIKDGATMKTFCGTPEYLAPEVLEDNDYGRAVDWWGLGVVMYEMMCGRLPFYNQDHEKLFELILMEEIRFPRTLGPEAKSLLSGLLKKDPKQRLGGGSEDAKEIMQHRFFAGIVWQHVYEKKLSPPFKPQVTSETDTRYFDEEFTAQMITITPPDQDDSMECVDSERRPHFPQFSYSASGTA
# experimental-protocol: Inactive Akt HTRF Assay (Akt1)
Entries and their log10(IC50)
property-label: log10(IC50) (log10 of the value in µM)

>>> measured_number("Nc1ncccc1-c1nc2cc(-c3ccccc3Br)cnc2n1-c1ccc(CNC(=O)c2ccccc2)cc1")
0.85
>>> measured_number("Nc1ncccc1-c1nc2cc(-c3ccc(F)cc3)cnc2n1-c1ccc(CNC(=O)c2ccccc2)cc1")
0.89
>>> measured_number("Nc1ncccc1-c1nc2cc(Br)cnc2n1-c1ccc(CNS(=O)(=O)c2ccc3ccccc3c2)cc1")
0.91
>>> measured_number("CCCCNC(=O)Cc1ccc(-n2c(-c3cccnc3N)nc3cccnc32)cc1")
0.84
>>> measured_number("Cc1ccc(-c2cnc3c(c2)nc(-c2cccnc2N)n3-c2ccc(CNC(=O)c3ccccc3)cc2)cc1")
0.65
>>> measured_number("CC(C(=O)NCc1ccc(-n2c(-c3cccnc3N)nc3cccnc32)cc1)c1ccccc1 (centres unmarked)")
1.92
>>> measured_number("Nc1ncccc1-c1nc2cccnc2n1-c1ccc(CC(=O)Nc2ccc(Cl)cn2)cc1")
0.60
>>> measured_number("Nc1ncccc1-c1nc2cccnc2n1-c1ccc(C(=O)NCc2ccccc2)cc1")
0.85
